Some binders, each annotated with its measured Kd.
Target: T1, Soluble TSHR (22-260) protein (human, UniProt P16473 22-260)
T1 construct: range 22-260
Assay: SPR (Biacore T200, 25 C), antibody captured on anti-human Fc, soluble TSHR (22-260) as analyte, 1:1 fit;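 also: antibodies captured at 0.1 ug/mL on a CM5 sensor chip bearing anti-human Fc, with HBS-EP+ running buffer at pH 7.4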
State just the number; it will be interpreted in nM.

Incoming: Fill in: Kd of TSHB-24 (antibody, V domains shown) VH: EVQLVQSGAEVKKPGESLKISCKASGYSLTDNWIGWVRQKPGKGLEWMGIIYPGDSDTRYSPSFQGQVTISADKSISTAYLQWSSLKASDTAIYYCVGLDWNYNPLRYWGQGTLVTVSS VL: QSVLTQPPSVSGAPGQRVTISCSGSSSDIGSNYVSWYQQLPGTAPKLLIYDNNKRPSGVPDRFSGSKSGTSASLAITGLQAEDEADYYCGTWDSRLGIAVFGGGTKLTVL is ___
Outgoing: 2.7

Incoming: Form field: reported Kd of TSHB-21 (antibody, V domains shown) VH: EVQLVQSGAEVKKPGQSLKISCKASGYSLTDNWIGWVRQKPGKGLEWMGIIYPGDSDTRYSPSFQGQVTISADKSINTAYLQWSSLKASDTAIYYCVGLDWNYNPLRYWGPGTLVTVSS VL: QSVLTQPPSVSAAPGQKVTISCSGSSSDIGSNYVSWYQQLPGTAPKLLIYDNNKRPSGIPDRFSGSKSGTSATLGITGLQTGDEADYYCATWDSRLGIAVFGGGTQLTVL
Outgoing: 3.1

Incoming: State the recorded Kd for this entry: TSHB-3 (antibody, V domains shown) VH: EVQLVQSGAEVKKPGESLKISCKASGYSLTDNWIGWVRQKPGKGLEWMGIIYPGDSDTRYSPSFQGQVTISADKSISTAYLQWSSLKASDTAIYYCVGLEWNYNPLRYWGQGTLVTVSS VL: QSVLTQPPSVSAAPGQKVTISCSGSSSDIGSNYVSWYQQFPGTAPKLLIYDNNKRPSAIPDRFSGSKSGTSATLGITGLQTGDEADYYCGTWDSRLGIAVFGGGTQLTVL
Outgoing: 3.01

Incoming: I would be grateful if you could share the reported Kd for TSHB-7 (antibody, V domains shown) VH: EVQLVQSGAEVKKPGESLKISCKASGYSLKDNWIGWVRQKPGKGLEWMGIIYPGDSDTRYSPSFQGQVTISADKSISTAYLQWSSLKASDTAIYYCVGLDWNYNPLRYWGQGTLVTVSS VL: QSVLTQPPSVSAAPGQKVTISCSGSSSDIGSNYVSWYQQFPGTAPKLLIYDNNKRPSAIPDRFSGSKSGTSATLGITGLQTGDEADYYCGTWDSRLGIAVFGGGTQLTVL .
Outgoing: 4.11

Incoming: Item under review: TSHB-16 (antibody, V domains shown) VH: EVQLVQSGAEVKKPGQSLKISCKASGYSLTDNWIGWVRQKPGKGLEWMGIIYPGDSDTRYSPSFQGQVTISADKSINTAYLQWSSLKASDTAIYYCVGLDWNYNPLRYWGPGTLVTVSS VL: QSVLTQPPSVSAAPGQKVTISCSGSSSDIGANYVSWYQQLPGTAPKLLIYDNNKRPSGIPDRFSGSKSGTSATLGITGLQTGDEADYYCGTWDSRLGIAVFGGGTQLTVL . Reported Kd?
Outgoing: 2.7
